Measured values drawn from patent US20130310344A1 for this set.

Bcl-XL (Homo sapiens) data, read-out pIC50
Sequence (Q07817 1-209): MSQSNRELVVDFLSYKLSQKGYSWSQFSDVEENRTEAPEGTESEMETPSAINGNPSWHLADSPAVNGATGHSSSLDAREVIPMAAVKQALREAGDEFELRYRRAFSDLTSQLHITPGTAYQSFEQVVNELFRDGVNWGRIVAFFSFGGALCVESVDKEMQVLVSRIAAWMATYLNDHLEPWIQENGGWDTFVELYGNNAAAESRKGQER
pIC50: −log10 of the molar value. Where a name gives a salt, the structure may show the parent alone.
MEASURE_NAME: pIC50

compound="CCN(CC)C[C@H]1COCCN1CC[C@H](CSc1ccccc1)Nc1ccc(S(=O)(=O)NC(=O)c2ccc(N3CCC([C@@H](O)c4ccccc4-c4ccc(Cl)cc4)CC3)cc2)cc1S(=O)(=O)C(F)(F)F [Example 20]" measure_name=pIC50 reported_result=9.00
compound="O=C(NS(=O)(=O)c1ccc(N[C@H](CCN2CCO[C@@H](CO)C2)CSc2ccccc2)c(S(=O)(=O)C(F)(F)F)c1)c1ccc(N2CCC([C@@H](O)c3ccccc3-c3ccc(Cl)cc3)CC2)cc1 [Example 22, formic acid salt]" measure_name=pIC50 reported_result=8.52
compound="CN(CCOP(=O)(O)O)CC[C@H](CSc1ccccc1)Nc1ccc(S(=O)(=O)NC(=O)c2ccc(N3CCC([C@@H](O)c4ccccc4-c4ccc(Cl)cc4)CC3)cc2)cc1S(=O)(=O)C(F)(F)F [Example 9, phosphate, hydrochloride salt]" measure_name=pIC50 reported_result=9.00

###

Target: Bcl-2 (Homo sapiens, UniProt P10415)
Construct: a c-terminal 6×HIS tagged Bcl-2 (aa 1-204); 6xHis (C)
Sequence (P10415 1-204): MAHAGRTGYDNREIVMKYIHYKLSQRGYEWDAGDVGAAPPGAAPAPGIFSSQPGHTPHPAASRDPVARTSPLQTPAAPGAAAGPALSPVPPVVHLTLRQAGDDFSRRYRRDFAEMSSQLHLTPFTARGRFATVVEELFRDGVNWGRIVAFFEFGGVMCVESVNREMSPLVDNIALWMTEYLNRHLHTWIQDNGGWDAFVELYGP
Experiment: Bcl-2 FP assay (competitive fluorescence polarization binding assay, FITC-Bim BH-3 peptide tracer)
Conditions: c-terminal 6×HIS tagged Bcl-2 (aa 1-204), 1.3 nM; 2 nM FITC-Bim peptide tracer
Counter-ions that a name gives are not always drawn.
Binary label based on IC50 with cut-off 20 nM: below gives 1, not below gives 0.

compound="N[C@@H](c1ccccc1-c1ccc(Cl)cc1)C1CCN(c2ccc(C(=O)NS(=O)(=O)c3ccc(N[C@H](CCN4CCN(CCO)CC4)CSc4ccccc4)c(S(=O)(=O)C(F)(F)F)c3)cc2)CC1 [Example 13, formic acid salt]" test_target="Bcl-2 (Homo sapiens, UniProt P10415)" category_label=1
compound="O=C(NS(=O)(=O)c1ccc(N[C@H](CCN2CCO[C@@H](CO)C2)CSc2ccccc2)c(S(=O)(=O)C(F)(F)F)c1)c1ccc(N2CCC([C@@H](O)c3ccccc3-c3ccc(Cl)cc3)CC2)cc1 [Example 22, formic acid salt]" test_target="Bcl-2 (Homo sapiens, UniProt P10415)" category_label=1
compound="CN(C)[C@@H](c1ccccc1-c1ccc(Cl)cc1)C1CCN(c2ccc(C(=O)NS(=O)(=O)c3ccc(N[C@H](CCN4CCOCC4)CSc4ccccc4)c(S(=O)(=O)C(F)(F)F)c3)cc2)CC1 [Example 36, hydrochloride salt]" test_target="Bcl-2 (Homo sapiens, UniProt P10415)" category_label=0
compound="O=C(NS(=O)(=O)c1ccc(N[C@H](CCN2CCOCC2)CSc2ccccc2)c(S(=O)(=O)C(F)(F)F)c1)c1ccc(N2CCC([C@@H](O)c3ccccc3-c3ccc(Cl)cc3)CC2)cc1 [Example 15]" test_target="Bcl-2 (Homo sapiens, UniProt P10415)" category_label=1
compound="COP(=O)(O)O[C@@H](c1ccccc1-c1ccc(Cl)cc1)C1CCN(c2ccc(C(=O)NS(=O)(=O)c3ccc(N[C@H](CCN4CCOCC4)CSc4ccccc4)c(S(=O)(=O)C(F)(F)F)c3)cc2)CC1 [Example 30, phosphate, hydrochloride salt]" test_target="Bcl-2 (Homo sapiens, UniProt P10415)" category_label=1
compound="O=C(NS(=O)(=O)c1ccc(N[C@H](CCN2CCO[C@H](CO)C2)CSc2ccccc2)c(S(=O)(=O)C(F)(F)F)c1)c1ccc(N2CCC([C@@H](O)c3ccccc3-c3ccc(Cl)cc3)CC2)cc1 [Example 23, formic acid salt]" test_target="Bcl-2 (Homo sapiens, UniProt P10415)" category_label=1
compound="O=C(NS(=O)(=O)c1ccc(N[C@H](CCN2CCOCC2)CSc2ccccc2)c(S(=O)(=O)C(F)(F)F)c1)c1ccc(N2CCC([C@H](O)c3ccccc3-c3ccc(Cl)cc3)CC2)cc1 [Example 14]" test_target="Bcl-2 (Homo sapiens, UniProt P10415)" category_label=0
compound="CCN(CCOP(=O)(O)O)CC[C@H](CSc1ccccc1)Nc1ccc(S(=O)(=O)NC(=O)c2ccc(N3CCC([C@@H](O)c4ccccc4-c4ccc(Cl)cc4)CC3)cc2)cc1S(=O)(=O)C(F)(F)F [Example 8, phosphate, hydrochloride salt]" test_target="Bcl-2 (Homo sapiens, UniProt P10415)" category_label=1
compound="CN(CCO)CC[C@H](CSc1ccccc1)Nc1ccc(S(=O)(=O)NC(=O)c2ccc(N3CCC([C@@H](N)c4ccccc4-c4ccc(Cl)cc4)CC3)cc2)cc1S(=O)(=O)C(F)(F)F [Example 11, formic acid salt]" test_target="Bcl-2 (Homo sapiens, UniProt P10415)" category_label=1
